Cited source: the OPERA property sets (Mansouri et al. 2018)

endpoint name: logP
Could you keep your reply to the number by itself?

Tell me the measured logP of COCC(C)OC(=O)C(N)Cc1ccc(O)c(O)c1 (centres undefined) , please.
0.08

Given "NC(=O)c1ccccc1NCCCO" , state its recorded logP.
0.7

Find the recorded logP belonging to "Cc1ccc(C(=O)CS(=O)(=O)c2ccccc2)cc1" and report it.
2.7

Entry "COP(=S)(OC)Oc1ccc(C#N)cc1" : reported logP = ?
2.71

GET /values?readout=logP&item= "CCCCOC(=O)c1ccccc1O"
4.63

Which logP value is on record for "[O-][N+](=Cc1ccccc1)c1ccccc1" ?
1.88

Find the recorded logP belonging to "S=C1NCCN1" and report it.
-0.66

Data request, read-out logP, for "O=[N+]([O-])c1c(Cl)ncnc1Cl"
2.29

What value of logP has been reported for the following compound? "CC(=O)Nc1ccc2nc(S(N)(=O)=O)sc2c1"
0.86

Fill in: logP of "C=CCCCCCCCC" is ___
5.7

Fill in: logP of CCn1cc(C(=O)NC(C)C(=O)OC)c(=O)c2ccc(C)nc21 (centres undefined) is ___
2.47

Give the measured logP of "NC(=S)Nc1cccc2ccccc12" .
1.65

# input compound: "O=C1OC(c2ccc(O)cc2)(c2ccc(O)cc2)c2ccccc21" ; wanted: its logP
2.89

logP for CC(C)Cc1ccc(C(C)(O)C(=O)O)cc1 (centres undefined) ?
2.75

* * *

Kindly supply the reported logP values for the records listed here.
// response body must contain only the number

Please look up its logP: CC(=O)Oc1ccc(CC(N)C(=O)O)cc1 (configuration not stated)
-1.33

Need logP, item "CC(C)(C)C1CCCCC1"
5.04

What logP value was documented for this compound, "OCCCNc1ccccc1" ?
0.57

# logP lookup, item ClC=C1C2CC(C(Cl)C2(Cl)Cl)C1(CCl)CCl (configuration not stated)
5.2

Requested field: logP. Item: "CC(C)c1cccc(-c2ccccc2)c1"
5.33

Please look up its logP: CC(C)(C)C1CCC(O)CC1 (configuration not stated)
3.23

Quick check: logP of "CCCOC(=O)c1cc(=O)[nH]c(=O)[nH]1" ?
1.1

Find the recorded logP belonging to "CCOC(=O)COc1cccc2ccccc12" and report it.
2.9

If you can, please state the reported logP value of "N#Cc1cc(-c2ccncc2)cnc1NCCCO" .
1.42

# get_value(readout='logP', item= "O=C(O)c1c(C(=O)O)c(C(=O)O)c(C(=O)O)c(C(=O)O)c1C(=O)O" )
1.5

For the compound shown here, Cc1cc(=O)oc2cc(C3OC(C(=O)O)C(O)C(O)C3O)ccc12 (configuration not stated) , give the reported logP.
-0.39

Suppose we examine the compound "CCCCOC(=O)c1ccccc1C(=O)OCc1ccccc1" ; what logP value has been reported?
4.73

Data request, read-out logP, for "COc1c(Cl)cc(Cl)cc1Cl"
4.11

Name the recorded logP for "Clc1cc(Cl)c(-c2cc(Cl)c(Cl)cc2Cl)cc1Cl" .
6.34

Fill in: logP of "O=C(CS(=O)(=O)c1ccccc1)c1ccc(Cl)cc1" is ___
2.69

Sample "CNC(=O)CCc1ccccc1" — what was its logP?
1.17

Need logP, item "Cc1cc(Cl)c(C(C)C)cc1Cl"
5.6

Need logP, item "CCCCCCCCCC1(CC)C(=O)NC(=O)NC1=O"
4

Quick one: logP for "CCCCCCCCCC" ?
5.01

Look up logP for this compound: "CC[C@H](C)C(=O)O[C@H]1C[C@H](O)C=C2C=C[C@H](C)[C@H](CC[C@@H](O)C[C@@H](O)CC(=O)[O-])[C@H]21.[Na+]"
-0.23

# get_value(readout='logP', item= "CCCCC(=O)CCCC" )
2.88

Find the recorded logP belonging to "Clc1cc2c(Cl)ccc(Cl)c2c(Cl)c1Cl" and report it.
6.8

# query: logP of entry CCn1cc(C(=O)O)c(=O)c2cc(F)c(N3CCNC(C)C3)c(F)c21 (configuration not stated)
-0.3

Find the recorded logP belonging to CC(O)COC(=O)[C@@H](N)Cc1ccc(O)c(O)c1 (some centres not stated) and report it.
-0.49

Value lookup for logP; key = "CC(C)CCOC(=O)c1cc(=O)[nH]c(=O)[nH]1"
1.48

Report logP for "Brc1cccc(O[Si]23OCCN(CCO2)CCO3)c1" please.
0.26

What does the record list as logP for "O=[N+]([O-])c1ccc2nc[nH]c2c1" ?
1.5
